Origin of measurements: paper PMC10988555

Test system: A2780 (human ovarian carcinoma) cell line
TEST_DETAILS: Antiproliferative activity, MTS assay, A2780
Assay type: cell-based
ASSAY_SETUP: 48 h exposure, MTS assay
READOUT_KIND: pIC50
// pIC50 is dimensionless: -log10 of concentration (M)

Query: Need pIC50 of N.N.[Cl][Pt][Cl] [cisplatin, reference compound] , thanks.
Response: 5.72

Query: Need pIC50 of O=S(=O)([O-])C(F)(F)F.O=S(=O)([O-])C(F)(F)F.[Co+3].c1cc[cH-]c1.c1ccc(-c2ccccn2)nc1.c1ccc(P(c2ccccc2)c2ccccc2)cc1 [Complex 1, [Co(η^5-C5H5)(PPh3)(bipy)][(CF3SO3)2]] , thanks.
Response: 4.74

Query: Need pIC50 of O=S(=O)([O-])C(F)(F)F.O=S(=O)([O-])C(F)(F)F.[Co+3].c1cc[cH-]c1.c1ccc(P(c2ccccc2)c2ccccc2)cc1.c1cnc2c(c1)ccc1cccnc12 [Complex 3, [Co(η^5-C5H5)(PPh3)(phen)][(CF3SO3)2]] , thanks.
Response: 5.21

Query: Need pIC50 of O=[C]=[Co]([I])([I])[CH]1C=CC=C1 [[CoCp(CO)I2]] , thanks.
Response: 4.52

Query: Need pIC50 of Cc1ccnc(-c2cc(C)ccn2)c1.O=S(=O)([O-])C(F)(F)F.O=S(=O)([O-])C(F)(F)F.[Co+3].c1cc[cH-]c1.c1ccc(P(c2ccccc2)c2ccccc2)cc1 [Complex 2, [Co(η^5-C5H5)(PPh3)(Me2bipy)][(CF3SO3)2]] , thanks.
Response: 5.21

Query: Need pIC50 of Nc1cc2cccnc2c2ncccc12.O=S(=O)([O-])C(F)(F)F.O=S(=O)([O-])C(F)(F)F.[Co+3].c1cc[cH-]c1.c1ccc(P(c2ccccc2)c2ccccc2)cc1 [Complex 4, [CoCp(PPh3)(NH2phen)][(CF3SO3)2]] , thanks.
Response: 5.33

---

Consider the following compounds; for each one, report its levels of autophagy.
System: A2780 cell line
TEST_DETAILS: Autophagy induction, flow cytometry
Assay type: cell-based, human
ASSAY_SETUP: A2780, 48 h; complexes at IC50, DOX 0.4 μM, cisplatin 5 μM; rapamycin 500 nM for 15 h
Answer format: numeric, % implied, no suffix.

Query: // lookup levels of autophagy | system=A2780 cell line | key= Nc1cc2cccnc2c2ncccc12.O=S(=O)([O-])C(F)(F)F.O=S(=O)([O-])C(F)(F)F.[Co+3].c1cc[cH-]c1.c1ccc(P(c2ccccc2)c2ccccc2)cc1 [Complex 4, [CoCp(PPh3)(NH2phen)][(CF3SO3)2]]
Response: 95.5

Query: // lookup levels of autophagy | system=A2780 cell line | key= CO[C@H]1C[C@@H]2CC[C@@H](C)[C@@](O)(O2)C(=O)C(=O)N2CCCC[C@H]2C(=O)O[C@H]([C@H](C)C[C@@H]2CC[C@@H](O)[C@H](OC)C2)CC(=O)[C@H](C)/C=C(\C)[C@@H](O)[C@@H](OC)C(=O)[C@H](C)C[C@H](C)/C=C/C=C/C=C/1C [rapamycin, Rapamycin, reference compound]
Response: 72.93

Query: // lookup levels of autophagy | system=A2780 cell line | key= COc1cccc2c1C(=O)c1c(O)c3c(c(O)c1C2=O)C[C@@](O)(C(=O)CO)C[C@@H]3O[C@H]1C[C@H](N)[C@H](O)[C@H](C)O1 [doxorubicin, reference compound]
Response: 84.1

Query: // lookup levels of autophagy | system=A2780 cell line | key= Cc1ccnc(-c2cc(C)ccn2)c1.O=S(=O)([O-])C(F)(F)F.O=S(=O)([O-])C(F)(F)F.[Co+3].c1cc[cH-]c1.c1ccc(P(c2ccccc2)c2ccccc2)cc1 [Complex 2, [Co(η^5-C5H5)(PPh3)(Me2bipy)][(CF3SO3)2]]
Response: 81.5

Query: // lookup levels of autophagy | system=A2780 cell line | key= N.N.[Cl][Pt][Cl] [cisplatin, reference compound]
Response: 96.7

---

TEST_DETAILS: Octanol-water partition coefficient, shake-flask method
Type: physicochemical
ASSAY_SETUP: room temperature
Experimental: The lipophilicity of the CoCp complexes was estimated by the shake-flask method.[54] Before the assays, n-octanol was vigorously mixed with distilled water for 24 h at room temperature to promote solvent saturation of both phases. […] Afterward, the aqueous and octanol layers were carefully separated by centrifugation (5000 rpm, 10 min), and the UV–vis absorption spectra of the complexes were recorded in the n-octanol phase. […]
READOUT_KIND: logP (n-octanol/water partition coefficient)

Query: Need logP (n-octanol/water partition coefficient) of O=S(=O)([O-])C(F)(F)F.O=S(=O)([O-])C(F)(F)F.[Co+3].c1cc[cH-]c1.c1ccc(-c2ccccn2)nc1.c1ccc(P(c2ccccc2)c2ccccc2)cc1 [Complex 1, [Co(η^5-C5H5)(PPh3)(bipy)][(CF3SO3)2]] , thanks.
Response: −0.67 ± 0.02

Query: Need logP (n-octanol/water partition coefficient) of Cc1ccnc(-c2cc(C)ccn2)c1.O=S(=O)([O-])C(F)(F)F.O=S(=O)([O-])C(F)(F)F.[Co+3].c1cc[cH-]c1.c1ccc(P(c2ccccc2)c2ccccc2)cc1 [Complex 2, [Co(η^5-C5H5)(PPh3)(Me2bipy)][(CF3SO3)2]] , thanks.
Response: −0.56 ± 0.02

Query: Need logP (n-octanol/water partition coefficient) of Nc1cc2cccnc2c2ncccc12.O=S(=O)([O-])C(F)(F)F.O=S(=O)([O-])C(F)(F)F.[Co+3].c1cc[cH-]c1.c1ccc(P(c2ccccc2)c2ccccc2)cc1 [Complex 4, [CoCp(PPh3)(NH2phen)][(CF3SO3)2]] , thanks.
Response: −0.22 ± 0.03

Query: Need logP (n-octanol/water partition coefficient) of O=S(=O)([O-])C(F)(F)F.O=S(=O)([O-])C(F)(F)F.[Co+3].c1cc[cH-]c1.c1ccc(P(c2ccccc2)c2ccccc2)cc1.c1cnc2c(c1)ccc1cccnc12 [Complex 3, [Co(η^5-C5H5)(PPh3)(phen)][(CF3SO3)2]] , thanks.
Response: −0.28 ± 0.05

---

Test system: DNA of A2780 cells
TEST_DETAILS: Single-cell gel electrophoresis (comet assay)
Type: cell-based, human
ASSAY_SETUP: A2780; complexes 10× IC50 for 12 h; H2O2 0.05% for 30 min at RT
READOUT_KIND: % of DNA in the tail (%)
Answer format: numeric, % implied, no suffix.

Query: // lookup % of DNA in the tail | system=DNA of A2780 cells | key= O=S(=O)([O-])C(F)(F)F.O=S(=O)([O-])C(F)(F)F.[Co+3].c1cc[cH-]c1.c1ccc(P(c2ccccc2)c2ccccc2)cc1.c1cnc2c(c1)ccc1cccnc12 [Complex 3, [Co(η^5-C5H5)(PPh3)(phen)][(CF3SO3)2]]
Response: 42.4

Query: // lookup % of DNA in the tail | system=DNA of A2780 cells | key= Cc1ccnc(-c2cc(C)ccn2)c1.O=S(=O)([O-])C(F)(F)F.O=S(=O)([O-])C(F)(F)F.[Co+3].c1cc[cH-]c1.c1ccc(P(c2ccccc2)c2ccccc2)cc1 [Complex 2, [Co(η^5-C5H5)(PPh3)(Me2bipy)][(CF3SO3)2]]
Response: 39.7

Query: // lookup % of DNA in the tail | system=DNA of A2780 cells | key= OO [hydrogen peroxide, reference compound]
Response: 73

Query: // lookup % of DNA in the tail | system=DNA of A2780 cells | key= Nc1cc2cccnc2c2ncccc12.O=S(=O)([O-])C(F)(F)F.O=S(=O)([O-])C(F)(F)F.[Co+3].c1cc[cH-]c1.c1ccc(P(c2ccccc2)c2ccccc2)cc1 [Complex 4, [CoCp(PPh3)(NH2phen)][(CF3SO3)2]]
Response: 56.4

---

Test system: normal human primary dermal fibroblasts
TEST_DETAILS: Antiproliferative activity, MTS assay, healthy fibroblasts
Format: cell-based
ASSAY_SETUP: 48 h exposure, healthy human cells
Consider the following molecules; for each one, report its IC50.

Query: // lookup IC50 | system=normal human primary dermal fibroblasts | key= Nc1cc2cccnc2c2ncccc12.O=S(=O)([O-])C(F)(F)F.O=S(=O)([O-])C(F)(F)F.[Co+3].c1cc[cH-]c1.c1ccc(P(c2ccccc2)c2ccccc2)cc1 [Complex 4, [CoCp(PPh3)(NH2phen)][(CF3SO3)2]]
Response: > 100 µM

Query: // lookup IC50 | system=normal human primary dermal fibroblasts | key= O=[C]=[Co]([I])([I])[CH]1C=CC=C1 [[CoCp(CO)I2]]
Response: > 50 µM

Query: // lookup IC50 | system=normal human primary dermal fibroblasts | key= O=S(=O)([O-])C(F)(F)F.O=S(=O)([O-])C(F)(F)F.[Co+3].c1cc[cH-]c1.c1ccc(P(c2ccccc2)c2ccccc2)cc1.c1cnc2c(c1)ccc1cccnc12 [Complex 3, [Co(η^5-C5H5)(PPh3)(phen)][(CF3SO3)2]]
Response: > 100 µM

Query: // lookup IC50 | system=normal human primary dermal fibroblasts | key= Cc1ccnc(-c2cc(C)ccn2)c1.O=S(=O)([O-])C(F)(F)F.O=S(=O)([O-])C(F)(F)F.[Co+3].c1cc[cH-]c1.c1ccc(P(c2ccccc2)c2ccccc2)cc1 [Complex 2, [Co(η^5-C5H5)(PPh3)(Me2bipy)][(CF3SO3)2]]
Response: > 100 µM

Query: // lookup IC50 | system=normal human primary dermal fibroblasts | key= O=S(=O)([O-])C(F)(F)F.O=S(=O)([O-])C(F)(F)F.[Co+3].c1cc[cH-]c1.c1ccc(-c2ccccn2)nc1.c1ccc(P(c2ccccc2)c2ccccc2)cc1 [Complex 1, [Co(η^5-C5H5)(PPh3)(bipy)][(CF3SO3)2]]
Response: > 100 µM
